System: Cabbage Looper [Trichoplusia ni (Hubner)]
Experiment: Cabbage looper insecticidal test
Format: in vivo
Settings: second-instar larvae, percent in solution; 3-5 days
Parameter: LC50, CL (%)
Numbers only, in %.

Would you please look over these solved cases?
- Compound: "CC(C)C(=Nc1ccc(I)cc1)OCc1cccc(Oc2ccc(F)cc2)c1 [Compound 234]"
  Test System: "Cabbage Looper [Trichoplusia ni (Hubner)]"
  LC50, CL, %: 0.00045
- Compound: "CC(C)C(=Nc1cccc(C(F)(F)F)c1)OCc1coc(Cc2ccccc2)c1 [Compound 482]"
  Test System: "Cabbage Looper [Trichoplusia ni (Hubner)]"
  LC50, CL, %: 0.01
- Compound: "CC(C)C(=Nc1ccc(C(F)(F)F)cc1)OCc1ccc(F)c(Oc2ccc(F)cc2)c1 [Compound 287]"
  Test System: "Cabbage Looper [Trichoplusia ni (Hubner)]"
  LC50, CL, %: 0.0025
- Compound: "CCOc1cccc(N=C(OCc2cccc(Oc3ccccc3)c2)C(C)C)c1 [Compound 171]"
  Test System: "Cabbage Looper [Trichoplusia ni (Hubner)]"
  LC50, CL, %: 0.01
- Compound: "CC(C)C(=Nc1cc(Cl)c(Cl)cc1Cl)OCc1cccc(Oc2ccccc2)c1 [Compound 18]"
  Test System: "Cabbage Looper [Trichoplusia ni (Hubner)]"
  LC50, CL, %: 0.008
- Compound: "CC(C)C(=Nc1ccc(Cl)c(Cl)c1)OCc1cccc(Nc2ccc(F)cc2)c1 [Compound 514]"
  Test System: "Cabbage Looper [Trichoplusia ni (Hubner)]"
  LC50, CL, %: 0.008

Would you mind listing LC50, CL for each of the following compounds?
1. CC(C)C(=Nc1ccc(F)c(F)c1)OCc1cccc(Oc2ccccc2)c1 [Compound 54]
2. CCCCc1ccc(N=C(OCc2cccc(Oc3ccccc3)c2)C(C)C)cc1 [Compound 152]
3. CCCC(=Nc1ccc(OC)cc1)OCc1cccc(Oc2ccccc2)c1 [Compound 184]

1. 0.0003
2. 0.009
3. 0.024

Would you mind listing LC50, CL for each of the following compounds?
1. CC(C)C(=Nc1ccc(Br)cc1)OCc1cccc(Oc2ccccc2)c1 [Compound 131]
2. CC(C)C(=Nc1ccc2c(c1)OC(C)(C)O2)OCc1ccc(F)c(Oc2ccc(F)cc2)c1 [Compound 283]
3. Cc1ccc(N=C(OCc2cccc(Oc3ccccc3)c2)C(C)C)cc1 [Compound 156]
4. COc1ccc(Oc2cccc(COC(=Nc3ccc(F)c(Cl)c3)C(C)C)c2)cc1 [Compound 221]
5. CC(C)C(=Nc1ccc(Cl)c(Cl)c1)OCc1ccc(F)c(Oc2ccc(Cl)cc2)c1 [Compound 296]
6. CCC(=Nc1cccc(Cl)c1Cl)OCc1cccc(Oc2ccccc2)c1 [Compound 28]

1: 0.0045; 2: 0.00009; 3: 0.004; 4: 0.0027; 5: 0.00025; 6: 0.009

====

Test system: Cabbage Looper [Trichoplusia ni (Hubner)]
Assay: Cabbage looper insecticidal test
Assay type: in vivo
Details: second-instar larvae, percent in solution; 3-5 days
Please note: LC50, CL exactly at 0.003% is 0. Only values below 0.003% get 1.

- Compound: "CSc1cccc(N=C(OCc2ccc(F)c(Oc3ccccc3)c2)C(C)C)c1"
  Assigned Label: 0
- Compound: "Fc1c(F)c(F)c(COC(=Nc2cccc(Cl)c2Cl)C(Cl)Cl)c(F)c1F"
  Assigned Label: 0

Confirm or reject: LC50, CL of CCc1ccc(N=C(OCc2cccc(Oc3ccccc3)c2)C(C)C)cc1 lies strictly below 0.003%
1

Confirm or reject: LC50, CL of Fc1ccc(COC(=Nc2ccc(C(F)(F)F)cc2)C2CC2)cc1Oc1ccc(Cl)cc1 lies strictly below 0.003%
1

Confirm or reject: LC50, CL of Cc1ccc(N=C(OCc2cccc(Oc3ccccc3)c2)C(C)(C)C)cc1Cl lies strictly below 0.003%
0

Confirm or reject: LC50, CL of CC(C)C(=Nc1ccc(Cl)cc1Cl)OCc1cccc(Oc2ccc(F)cc2)c1 lies strictly below 0.003%
0

Confirm or reject: LC50, CL of COc1ccc(N=C(OCc2ccc(F)c(Oc3ccc(Cl)cc3)c2)C(C)C)cc1 lies strictly below 0.003%
0

Data origin: patent US5070210A
